All figures here come from PubChem BioAssay.

ASSAY PROTOCOL: differential killing of epithelial or mesenchymal cells, primary screen, imaging, PC-3E GFP, TEM4-18 mCherry, co-culture (AID 1345086);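 also: cells exposed to compound for 72 h before imaging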
RUN PARAMETERS: imaging cell counts, measured here: mesenchymal TEM4-18 mCherry cell survival, at 1 µM
READOUT NAME: normalised cell number

Return normalised cell number for the following compound: `COC1=CC(=O)C=C(OC)C1=O`
0.84

Return normalised cell number for the following compound: `CC[N+](CC)(CC(=O)Nc1c(C)cccc1C)Cc1ccccc1`
1.61

Return normalised cell number for the following compound: `C=C1C(=O)O[C@@H]2C[C@@]3(C)CCC[C@H](C)C3=C[C@H]12`
0.9

Return normalised cell number for the following compound: `O=C(/C=C/c1ccc(O)cc1)c1ccc(O)cc1O`
0.91

Return normalised cell number for the following compound: `N#Cc1ccc2c(c1)N(CCCN1CCC(O)CC1)c1ccccc1S2`
0.92

Return normalised cell number for the following compound: CN(C)CCC(c1ccc(Br)cc1)c1ccccn1 (centres undefined)
1.19

Return normalised cell number for the following compound: COc1ccc2c(c1)OCC(Cc1ccc(OC)c(O)c1)C2=O (centres undefined)
0.65

Return normalised cell number for the following compound: `CN=C(N)NCCC[C@H](N)C(=O)O`
0.95

Return normalised cell number for the following compound: CC(C(=O)O)[C@H]1CCC2C3CC=C4C[C@@H](O)CC[C@]4(C)C3CC[C@@]21C (some centres undefined)
1.02

====

Kindly state growth inhibition for each of the entries shown.
ASSAY PROTOCOL: inhibition of 3D7 malaria parasite growth – strain 3D7 (AID 2306);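 also: 0% = DMSO wells and 100% = chloroquine plus artemisinin control wells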
RUN PARAMETERS: P. falciparum 3D7 erythrocytic growth, LDH absorbance, 72 h; at 2 µM; stronger effect = higher value
The source made the active and inactive calls. No rule for the calls is given here.

Return growth inhibition for the following molecule: `Cc1cc(NCCC(=O)NCCc2ccccc2)nc(NCCc2ccc(F)cc2)n1`
92% (active)

Return growth inhibition for the following molecule: `Cc1cc(N[C@@H](Cc2ccccc2)C(=O)NC2CCCC2)nc(NCCc2cccs2)n1`
99% (active)

Return growth inhibition for the following molecule: `CC1(C)N=C(N)N=C(N)N1OCCCCOc1ccccc1`
95% (active)

Return growth inhibition for the following molecule: `COc1ccc(Cl)cc1NC(=O)Nc1cc(C)nc2ccccc12`
101% (active)

Return growth inhibition for the following molecule: `CCNc1cc(C(=O)N[C@@H](Cc2ccccc2)[C@H](O)CNCCc2ccccc2)cc(N2CCCC2=O)c1`
92% (active)

Return growth inhibition for the following molecule: `CN1CCC(C(=O)Nc2ccc(-c3cccc(-c4nc5ccc(C(F)(F)F)cc5[nH]4)c3)cc2)CC1`
100% (active)

====

ASSAY PROTOCOL: LFS_MB_2R medulloblastoma cell growth inhibition, synergistic combos for chromothripsis tumors, cisplatin combos (AID 1671457);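 also: cells exposed to compound for four days before readout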
RUN PARAMETERS: LFS_MB_2R medulloblastoma cells, measured here: combination with cisplatin, at 0.5 µM, stronger effect = higher value
Kindly state inhibition for each of the entries shown.
Lab book: enter the figure in %, no units written.

Return inhibition for the following compound: `CN1CCN(c2c(F)cc3c(=O)c(C(=O)O)cn(CCF)c3c2F)CC1`
7.66

Return inhibition for the following compound: `O=c1[nH]c(=O)n([C@H]2C[C@H](O)[C@@H](CO)O2)cc1C(F)(F)F`
-15.3

Return inhibition for the following compound: `N=C(N=C(N)N)N1CCOCC1`
8.19
